system: Danio rerio Tg(wt1b:EGFP) embryo, pronephros; assay: pronephric angle neck segment to proximal convoluted tubule (mean of left and right), fold change vs DMSO control; higher = larger pronephric angle; conditions: 25 µM; exposure: 24-48 hpf
Where a name gives a salt, the structure may show the parent alone.
Please respond with reported pronephric angle neck segment for every item in the list.
Answer using only a numeral; do not append any unit.

**Q:** Which measured pronephric angle neck segment value corresponds to CNC(C)CCC=C(C)C (centres undefined) [Isometheptene mucate] ?
**A:** 0.977

**Q:** What would you report for Cc1ccc2c(c1)c1c3n2CCNC3CCC1 (centres undefined) [Pirlindole mesylate] ?
**A:** 0.95

**Q:** What would you report for CC1CCc2cc(F)cc3c(=O)c(C(=O)O)cn1c23 (centres undefined) ?
**A:** 1.15

**Q:** What would you report for `Nc1ccn([C@H]2CC[C@@H](CO)O2)c(=O)n1` ?
**A:** 0.996

**Q:** What would you report for `C[C@]12CCC(=O)C=C1CC[C@@H]1[C@@H]2C(=O)C[C@@]2(C)[C@H]1CC[C@]2(O)C(=O)CO` ?
**A:** 1.03

**Q:** What would you report for CC(C)NC[C@H](O)COc1cccc2ccccc12 [(S)-propranolol hydrochloride] ?
**A:** 0.974

**Q:** What would you report for CC1CCc2c(N3CCC(O)CC3)c(F)cc3c(=O)c(C(=O)O)cn1c23 (centres undefined) ?
**A:** 1.04

**Q:** What would you report for CN(C)CCCC1(c2ccc(F)cc2)OCc2cc(C#N)ccc21 (centres undefined) [Citalopram Hydrobromide] ?
**A:** 0.956

**Q:** What would you report for NC(=O)OCC(O)COc1ccc(Cl)cc1 (centres undefined) [Chlorphensin carbamate] ?
**A:** 1.12
